Record form. Attribute: cell viability. Fill in for each entry.
Test system: Calu-3
Test: cell viability relative to DMSO; higher = less toxic
Conditions: 72 h; 100 nM
Give your result as the value with the unit written after it.

Item `CC1(C)S[C@@H]2[C@H](N3C(=O)[C@@H](c4ccccc4)NC3(C)C)C(=O)N2[C@H]1C(=O)O` ; assay system Calu-3; cell viability reported as 104%

Item `COC(=O)Nc1nc2cc(C(=O)c3ccccc3)ccc2[nH]1` ; assay system Calu-3; cell viability reported as 95%

Item `c1ccc2oc(C3=NCCN3)cc2c1` ; assay system Calu-3; cell viability reported as 102%

Item `C=C[C@]1(C)C[C@@H](OC(=O)CSC(C)(C)CNC(=O)[C@H](N)C(C)C)[C@]2(C)[C@H](C)CC[C@]3(CCC(=O)[C@H]32)[C@@H](C)[C@@H]1O` ; assay system Calu-3; cell viability reported as 102%

Item `CCCn1c(=O)c2nc(C34CC5CC(CC3C5)C4)[nH]c2n(CCC)c1=O` ; assay system Calu-3; cell viability reported as 92.6%

Item CN(CCOP(=O)(O)O)C(=N)N [creatinol-phosphate] ; assay system Calu-3; cell viability reported as 105%

Item `COc1ccccc1N1CCN(CCN2C(=O)CC3(CCCC3)CC2=O)CC1` ; assay system Calu-3; cell viability reported as 109%

Item `O=C(Oc1ccc(Br)cc1)N1CCN2CCC1CC2` ; assay system Calu-3; cell viability reported as 101%

Item `COc1ccc(-c2ccc3cc(C(=O)O)ccc3c2)cc1C12CC3CC(CC(C3)C1)C2` ; assay system Calu-3; cell viability reported as 101%

Item `COC(=O)Nc1nc2cc(SC(C)C)ccc2[nH]1` ; assay system Calu-3; cell viability reported as 103%

Item `CC(C)C[C@@H](NC(=O)[C@H](C)NC(=O)CNC(=O)[C@@H](NC=O)C(C)C)C(=O)N[C@@H](C)C(=O)N[C@@H](C(=O)N[C@H](C(=O)N[C@@H](C(=O)N[C@@H](Cc1c[nH]c2ccccc12)C(=O)N[C@H](CC(C)C)C(=O)N[C@@H](Cc1c[nH]c2ccccc12)C(=O)N[C@H](CC(C)C)C(=O)N[C@@H](Cc1c[nH]c2ccccc12)C(=O)N[C@H](CC(C)C)C(=O)N[C@@H](Cc1c[nH]c2ccccc12)C(=O)NCCO)C(C)C)C(C)C)C(C)C` ; assay system Calu-3; cell viability reported as 87.9%

Item `CCC(=O)NS(=O)(=O)c1ccc(-c2c(-c3ccccc3)noc2C)cc1` ; assay system Calu-3; cell viability reported as 94.4%

Item `O=C(O)CNC(=O)c1nc(Cl)c2ccccc2c1O` ; assay system Calu-3; cell viability reported as 96.6%

Item `CCCCn1ccc(N2CCC(c3ccccc3)CC2)c(Cl)c1=O` ; assay system Calu-3; cell viability reported as 87%

Item Cc1ccccc1N(C)C(=O)c1ccc([S+]([O-])c2nccs2)c([N+](=O)[O-])c1 (centres undefined) ; assay system Calu-3; cell viability reported as 102%

Item Cc1cc(S(=O)(=O)O)c2c(C)ccc(C(C)C)cc1-2 [sodium-gualenate] ; assay system Calu-3; cell viability reported as 112%

Item `N=C(N)SCCc1c[nH]cn1` ; assay system Calu-3; cell viability reported as 97%

Item `COc1cc(COc2cc(N)c(Cl)cc2C(=O)CCC2CCN(CCNS(C)(=O)=O)CC2)cc(OC)c1` ; assay system Calu-3; cell viability reported as 94.6%

Item CC(CN(C)C)CN1c2ccccc2CCc2ccccc21 (centres undefined) ; assay system Calu-3; cell viability reported as 105%
